Test: Stimulation of [35S]GTPcS binding against recombinant human opioid receptor delta 1
Type: functional
Assign labels as follows, please: Y for EC50 below 200 nM; N for EC50 equal to or exceeding 200 nM.

A selection of reference data follows.
COC1[C@H](NC(=O)CC2OC(CO)C(O)C(O)C2O)C=C[C@H]2[C@H]3Cc4ccc(O)cc4[C@@]12CCN3C (stereo not given in full) ... N
COC1[C@H](SC2OC(CO)C(O)C(O)C2O)C=C[C@H]2[C@H]3Cc4ccc(O)cc4[C@@]12CCN3C (stereo not given in full) ... Y
COC1[C@H](NC(=O)CC2OC(COCc3ccccc3)C(OCc3ccccc3)C(OCc3ccccc3)C2OCc2ccccc2)C=C[C@H]2[C@H]3Cc4ccc(O)cc4[C@@]12CCN3C (stereo not given in full) ... Y
CN1CC[C@]23c4c5ccc(O)c4O[C@H]2[C@@H](O[C@@H]2O[C@H](C(=O)O)[C@@H](O)[C@H](O)[C@H]2O)C=C[C@H]3[C@H]1C5 [MORPHINE GLUCURONIDE] ... Y

Next up:
Find out if reported EC50 for COC1[C@H](SC2OC(C(=O)O)C(O)C(O)C2O)C=C[C@H]2[C@H]3Cc4ccc(O)cc4[C@@]12CCN3C (stereo not given in full) is less than 200 nM
Y

Data origin, for the record: ChEMBL document CHEMBL1141907
